- target-or-system: KRAS (G12D)-HiBit in AsPc-1-KRAS (G12D)-HiBit-KI cell (Homo sapiens, UniProt P01116, G12D)
- Construct: host or cells: AsPc-1-KRAS (G12D)-HiBit-KI cells (knock-in line)
- Sequence (P01116 1-188 isoform P01116-2 G12D): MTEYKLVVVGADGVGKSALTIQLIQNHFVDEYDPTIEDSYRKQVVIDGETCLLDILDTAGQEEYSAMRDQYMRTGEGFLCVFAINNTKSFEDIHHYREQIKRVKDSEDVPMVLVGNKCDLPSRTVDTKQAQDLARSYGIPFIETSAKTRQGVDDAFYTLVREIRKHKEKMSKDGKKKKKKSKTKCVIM
- assay-text: G12D HiBit assay
- Format: cell-based
- test-conditions: 24 hours compound treatment, absolute DC50, read-out: Average PHA DC50
We begin with a simple list: items and their reported DC50.

Here are 3 molecules together with their reported answers.
C#Cc1c(F)ccc2cccc(-c3ncc4c(N5CC6CCC(C5)N6)nc(OC[C@@]56CCCN5[C@H](COC(=O)N5CCC(OC7CCN(c8ccc9c(c8)n(C)c(=O)n9C8CCC(=O)NC8=O)CC7)CC5)CC6)nc4c3F)c12 (stereo partly shown) [Compound 98]
< 100 nM
C#Cc1c(F)ccc2cccc(-c3ncc4c(N5CC6CCC(C5)N6)nc(OC[C@@]56CCCN5[C@H](COC(=O)N5CCC(N7CCN(Cc8ccc9c(c8)n(C)c(=O)n9C8CCC(=O)NC8=O)CC7)CC5)CC6)nc4c3F)c12 (stereo partly shown) [Compound 56]
< 100 nM
C#Cc1c(F)ccc2cccc(-c3ncc4c(N5CC6CCC(C5)N6)nc(OC[C@@]56CCCN5[C@H](COC(=O)N5CCC(CC7CCN(c8cccc9c8n(C)c(=O)n9C8CCC(=O)NC8=O)CC7)CC5)CC6)nc4c3F)c12 (stereo partly shown) [Compound 48]
≥ 300 nM

Now consider the entry below.
Quick check: DC50 of C#Cc1c(F)ccc2cccc(-c3ncc4c(N5CC6CCC(C5)N6)nc(OC[C@@]56CCCN5[C@H](COC(=O)N5CCC(Cn7cc(-c8ccc9c(c8)n(C)c(=O)n9C8CCC(=O)NC8=O)nn7)CC5)CC6)nc4c3F)c12 (stereo partly shown) [Compound 94] ? ≥ 300 nM
